# Test system: wheat
# experimental protocol: Test C preemergence
# Format: in vivo, Triticum aestivum
# test conditions: 500 g ai/ha, preemergence; 0 to 100 scale (0 no effect, 100 complete control)
Measured Wheat plant response rating, listed per entry.
Quick one: just the number, no unit, thanks!

A selection of reference data follows.
{"columns": ["molecule", "Wheat plant response rating"],
 "data": [
  ["C[C@H]1CN(C(=O)c2cc(-n3cncn3)cc(C(F)(F)F)c2)c2cccc(Cl)c2O1", 0],
  ["Cc1cccc2c1O[C@@H](C)CN2C(=O)c1cccc(-n2cnc(C#C[Si](C)(C)C)n2)c1", 10],
  ["CCOC[C@H]1CN(C(=O)c2cc(-n3cnc(C(C)C)n3)ccc2C)c2cccc(Cl)c2O1", 80]
]}

Next molecule, please.
Lookup: Recall the reported Wheat plant response rating of COC(C)c1ncn(-c2ccc(C)c(C(=O)N3CC(C)Oc4c(Cl)cccc43)c2)n1 (mixture of isomers) when tested on wheat.
Found: 80

----------
# Test system: wheat
# experimental protocol: Test A postemergence
# Assay type: in vivo, Triticum aestivum
# test conditions: 500 g ai/ha, postemergence, 10 days, visual injury, 0 to 100 scale (0 no effect, 100 complete control)
Each entry below carries its recorded Plant response rating, Wheat.
Reply briefly: the number, and no unit.

{"columns": ["molecule", "observed property", "value reported"],
 "data": [
  ["C=CCOc1ccc(-n2cnc(C(C)C)n2)cc1C(=O)N1C[C@H](C)Oc2c(Cl)cccc21 [Compound 110]", "Plant response rating, Wheat", 20],
  ["Cc1ccc(-n2cnc(C(C)(C)C)n2)cc1C(=O)N1C[C@H](C)Oc2c(C)cccc21 [Compound 100]", "Plant response rating, Wheat", 40],
  ["CCCCc1ncn(-c2cccc(C(=O)N3C[C@H](C)Oc4c(C)cccc43)c2)n1 [Compound 86]", "Plant response rating, Wheat", 20]
]}

# input for lookup
Lookup: Recall and state the measured Plant response rating, Wheat for Cc1nc(C)n(-c2cccc(C(=O)N3C[C@H](C)Oc4c(Cl)cccc43)c2)n1 [Compound 142] .
Found: 10

----------
# Test system: ragweed
# experimental protocol: Test C preemergence
# Assay type: in vivo, Ambrosia artemisiifolia
# test conditions: Preemergence, 125 g ai/ha; 0 to 100 scale, 0 no effect, 100 complete control
observed property: Plant response rating, Ragweed
Please respond with just the number, no unit label.

{"columns": ["compound", "study target", "Plant response rating, Ragweed"],
 "data": [
  ["COCc1ncn(-c2ccc(C)c(C(=O)N3C[C@H](C)Oc4c(Cl)cccc43)c2)n1", "ragweed", 10],
  ["Cc1cccc2c1O[C@@H](C)CN2C(=O)c1cc(-n2cnc(C(C)C)n2)cc2c1CCO2", "ragweed", 80],
  ["Cc1ccc(-n2cnc(C(C)O)n2)cc1C(=O)N1CC(C)Oc2c(Cl)cccc21 (mixture of isomers)", "ragweed", 70]
]}

Proceeding to the next compound to report its Plant response rating, Ragweed.
Lookup: Answer with the recorded Plant response rating, Ragweed for the compound listed here: CCc1ncn(-c2cc(C(=O)N3CC(C(F)(F)F)Oc4c(C)cccc43)ccn2)n1 (stereo not shown)
Found: 0

----------
Recorded Plant response rating, Foxtail, Green, one value per entry.
# Tested on: green foxtail
# experimental protocol: Test C postemergence
# Format: in vivo, Setaria viridis
# test conditions: 125 g ai/ha, postemergence, 10 days; 0 to 100 scale, 0 no effect, 100 complete control
// response body must contain only the number

Example molecules with recorded Plant response rating, Foxtail, Green:
{"columns": ["test smiles", "Plant response rating, Foxtail, Green"],
 "data": [
  ["Cc1ccc(-n2cnc(C(C)C)n2)cc1C(=O)N1C[C@H](C)Oc2c1cccc2C(F)(F)F", 20],
  ["CC(C)c1ncn(-c2cc3c(c(C(=O)N4C[C@H](C)Oc5c(Cl)cccc54)c2)OCCO3)n1", 90],
  ["CC(C)c1ncn(-c2cc3c(c(C(=O)N4C[C@H](C)Oc5c(Cl)cccc54)c2)OCCCO3)n1", 60],
  ["Cc1ccc(-n2cnc(C3(C)CCC3)n2)cc1C(=O)N1C[C@H](C)Oc2c(Cl)cccc21", 50]
]}

Let's switch to this molecule now.
Lookup: Specify measured Plant response rating, Foxtail, Green for COc1c(F)cc(-n2cnc(C(C)C)n2)cc1C(=O)N1C[C@H](C)Oc2c(Cl)cccc21 .
Found: 90

----------
# System: green foxtail
# experimental protocol: Test C postemergence
# Type: in vivo, Setaria viridis
# test conditions: Postemergence, 1000 g ai/ha, 10 days, visual 0 to 100 scale (0 no effect, 100 complete control)
# Description: […]
observed property: Plant response rating, Foxtail, Green
Give a plain numeric answer without units written out.

Below, 3 molecules whose answers are already recorded.
{"columns": ["molecule", "Plant response rating, Foxtail, Green"],
 "data": [
  ["C[C@H]1CN(C(=O)c2cccc(-c3cncc(Cl)c3)c2)c2cccc(Cl)c2O1 [Compound 384]", 10],
  ["Cc1nsc(-c2cccc(C(=O)N3C[C@H](C)Oc4c(Cl)cccc43)c2)n1 [Compound 390]", 20],
  ["C[C@H]1CN(C(=O)c2cccc(-c3cnnn3C)c2)c2cccc(Cl)c2O1 [Compound 239]", 30]
]}

From here, focus on the item given below.
Lookup: Identify measured Plant response rating, Foxtail, Green associated with Cc1cc(-c2cccc(C(=O)N3C[C@H](C)Oc4c(C)cccc43)c2)cnn1 [Compound 209]
Found: 0

----------
# Test system: soybean
# experimental protocol: Test A preemergence
# Format: in vivo, Glycine max
# test conditions: 500 g ai/ha, 0 to 100 scale (0 no effect, 100 complete control), 10 days
observed property: Plant response rating, Soybean
Note: the reply should be a number with no unit written.

{"columns": ["molecule", "observed property", "value reported"],
 "data": [
  ["COc1ccc(-n2cnc(C(C)(C)C)n2)cc1C(=O)N1C[C@H](C)Oc2c(Cl)cccc21", "Plant response rating, Soybean", 100]
]}

Lookup: Specify Plant response rating, Soybean for CC(C)Oc1ccc(-n2cnc(C(C)C)n2)cc1C(=O)N1C[C@H](C)Oc2c(Cl)cccc21 , system soybean.
Found: 100

Lookup: Provide Plant response rating, Soybean, system soybean, entry CCc1ccc(-n2cnc(C3CC3)n2)cc1C(=O)N1C[C@H](C)Oc2c(Cl)cccc21
Found: 60

Lookup: Report measured Plant response rating, Soybean on soybean; entry: CCc1ncn(-c2cccc(C(=O)N3C[C@H](C)Oc4c(C)cccc43)c2)n1
Found: 90

Lookup: Lab note: soybean assay, enter Plant response rating, Soybean for CC1CN(C(=O)c2cc(-n3cncn3)ccc2F)c2cccc(Cl)c2O1 (centres unmarked) here
Found: 70

----------
# System: corn
# experimental protocol: Test C postemergence
# Type: in vivo, Zea mays
# test conditions: Postemergence, 500 g ai/ha, 10 days, visual 0 to 100 scale (0 no effect, 100 complete control)
# Description: […]
observed property: Plant response rating, Corn
Response field accepts a number only; no unit should be typed.

{"columns": ["molecule", "value reported"],
 "data": [
  ["CCc1ncn(-c2ccc(OC)c(C(=O)N3C[C@H](C)Oc4c(C)cccc43)c2)n1", 90],
  ["COc1ccc(-n2cncn2)cc1C(=O)N1C[C@H](C)Oc2c(Cl)cccc21", 100],
  ["COC[C@H]1CN(C(=O)c2cc(-n3cnc(C4CC4)n3)ccc2C)c2cccc(Cl)c2O1", 70],
  ["C[C@H]1CN(C(=O)c2cc(-n3cnc(C4CC4)n3)cc3c2OCCO3)c2cccc(Cl)c2O1", 50]
]}

Lookup: State Plant response rating, Corn on corn. Entry: CCc1ccc(-n2cnc(C(C)C)n2)cc1C(=O)N1C[C@H](C)Oc2c(C)cccc21
Found: 80

Lookup: Determine reported Plant response rating, Corn for CCn1cnc(-c2cccc(C(=O)N3C[C@H](C)Oc4c(C)cccc43)c2)n1 ; test system: corn.
Found: 0

Lookup: Please look at Cc1cccc2c1O[C@@H](C)CN2C(=O)c1cccc(-n2cnc(N(C)C)n2)c1 and tell me its recorded Plant response rating, Corn on corn.
Found: 60

Lookup: # return Plant response rating, Corn of COc1ccc(-n2cnc(C(C)(C)O)n2)cc1C(=O)N1C[C@H](C)Oc2c(Cl)cccc21 (system: corn)
Found: 90

Lookup: State Plant response rating, Corn (corn) of Cc1ccc(-n2cnc(C3CCC3)n2)cc1C(=O)N1CC(C(F)(F)F)Oc2c(Cl)cccc21 (single isomer, unassigned) .
Found: 30

Lookup: Recall the reported Plant response rating, Corn of Cc1cn(-c2cccc(C(=O)N3C[C@H](C)Oc4c(C)cccc43)c2)cn1 when tested on corn.
Found: 0

Lookup: Find Plant response rating, Corn for COc1ccc(-n2cnc(C(C)C)n2)cc1C(=O)N1C[C@H](C)Oc2c(C)cccc21 on corn and write it down.
Found: 90

Lookup: Give Plant response rating, Corn for CC(C)n1cnc(-c2cccc(C(=O)N3C[C@H](C)Oc4c(Cl)cccc43)c2)n1 tested on corn.
Found: 0

Lookup: Fill in: Plant response rating, Corn on corn, entry COc1cc(C(=O)N2C[C@H](C)Oc3c(Cl)cccc32)cc(-n2cnc(C)n2)c1
Found: 90

Lookup: Name the value of Plant response rating, Corn reported for CC(C)c1ncn(-c2cc(OC(F)F)c(OC(F)F)c(C(=O)N3C[C@H](C)Oc4c(Cl)cccc43)c2)n1 when tested on corn.
Found: 0
